# Test target: Histone deacetylase
# Measurement description: Inhibition of HDAC in HeLa cells
# Type: cell-based, Homo sapiens
Metric: pIC50

For this compound ( CCSC(=S)SCC(=O)CCCCCCC(=O)Nc1ccccc1 ), measured pIC50 is 7.3

Noted for CCSC(=S)SCC(=O)c1ccc(N(CC)CC)cc1 : its pIC50 reads 5.7

Lookup result for COc1ccc(C(=O)CS)cc1 ; measured pIC50: 6.9

Entry CCSC(=S)SCC(=O)c1ccc(S(N)(=O)=O)cc1 , pIC50 reported as 6.2

Please fill in: pIC50 reported for CCSC(=S)SCC(=O)c1ccc(CNC(=O)OCc2cccnc2)cc1 = 7.4

I = CC(C)SC(=S)SCC(=O)c1ccc(Cl)c(Cl)c1
II = CCSC(=S)SCC(=O)c1cccc2c1OCCO2
Which of the two items, I and II , has the greater recorded pIC50? Select an item and report its label. I

* * *

# System: HeLa
# Measurement description: Antiproliferative activity against HeLa cells by alamar blue assay
# Type: functional, cell-based
# Condition: Homo sapiens
Metric: IC50 (µM)

For this compound ( CCSC(=S)SCC(=O)c1ccc(OC)c(OC)c1 ), measured IC50 is 5.01

IC50 reading for CCOC(=O)Nc1cccc(C(=O)CSC(=S)SCC)c1 : 2

Lab book: IC50 of CCSC(=S)SCC(=O)c1ccc(CNC(=O)OCc2cccnc2)cc1 noted as 20

Reported IC50 for CCSC(=S)SCC(=O)c1ccc(Cl)c(Cl)c1 was 7.94

The reported value for CCSC(=S)SCC(=O)c1ccccc1C in terms of IC50 is 10

For CCSC(=S)SCC(=O)c1cc(OC)ccc1OC the compound record lists IC50 as 15.8

A = CCSC(=S)SCC(=O)c1ccccc1
B = CCSC(=S)SCC(=O)c1ccc(S(N)(=O)=O)cc1
C = Cc1ccc(C(=O)CSC(=S)SC(C)(C)C)cc1
D = CSC(=S)SCC(=O)c1ccc(C)cc1
E = CCSC(=S)SCC(=O)c1cccc(NC(C)=O)c1
Sort the 5 compounds by IC50; largest first, smallest last. Answer by writing out the labels in the requested order. C, B, E, A, D

A = CCSC(=S)SCC(=O)c1ccccc1OC
B = COc1ccc(C(=O)CSC(C)=O)cc1
Could you please tell me which of these two has the higher IC50: A or B ? // return label of chosen record B

A = CCSC(=S)SCC(=O)c1ccc(OC)cc1OC
B = CCSC(=S)SCC(=O)c1ccc(C#N)cc1
C = O=C(CSC(=S)Sc1ccccc1)c1ccc(Cl)c(Cl)c1
D = CCSC(=S)SCC(=O)c1ccc(NC(C)=O)cc1
E = CCSC(=S)SCC(=O)c1ccc(Cl)cc1
Parameters: sort_field (IC50), sort_dir (desc). Put the labels in the order asked and list them. C, A, B, E, D
(C: 20 µM, A: 12.6 µM, B: 7.94 µM, E: 5.01 µM, D: 2 µM)

* * *

# Tested on: HeLa
# Measurement description: Antiproliferative activity against HeLa cells by alamar blue assay
# Format: functional, cell-based
# Condition: Homo sapiens
pIC50: −log10 of the molar value.
Metric: pIC50

Known results for compounds:
HeLa pIC50 of CCSC(=S)SCC(=O)c1ccc(OC)cc1 is 5.60

Form field pIC50 for item CCSC(=S)SCC(=O)c1cccc(OC)c1 on HeLa: 5.30

HeLa data for CCSC(=S)SCC(=O)c1ccc2c(c1)OCCO2 ; its pIC50: 5.10

Item: CCSC(=S)SC(C)C(=O)c1ccccc1 (stereo not drawn) | System: HeLa | pIC50: 5.30

pIC50 value, target or system HeLa, for Cc1ccc(C(=O)CSC(=S)SCc2ccccc2)cc1 : 4.60

a = CC(C)SC(=S)SCC(=O)c1ccc(Cl)c(Cl)c1
b = CCSC(=S)SCC(=O)c1ccc2c(c1)OCO2
Of a and b , which one carries the higher reported pIC50? Let me know the label of the one you choose. b

1 = COc1ccc(C(=O)CS)cc1
2 = CC(C)(C)SC(=S)SCC(=O)c1ccc(Cl)c(Cl)c1
3 = CCSC(=S)SCC(=O)c1ccc(NS(C)(=O)=O)cc1
4 = CCSC(=S)SCC(=O)c1ccc(N(CC)CC)cc1
Please list these in order of increasing pIC50. Thank you! Arrange the labels as the request states and list them. 3, 1, 2, 4
(3: 4.40, 1: 4.70, 2: 5.00, 4: 5.50)

A = CCSC(=S)SCc1nccc2ccccc12
B = CCSC(=S)SCC(=O)c1ccc(C)cc1
Dear colleague, could you let me know whether A or B has the lower recorded pIC50? Thanks. Lab note: record the label of whichever item you select. A
(A: 4.70, B: 5.40)
